testDetails: Pharmacokinetics in SD rats (intravenous injection and oral administration)
Assay type: in vivo
conditionSummary: rat, plasma; male SD rats, intravenous 1 mg/kg; read-out: Tissue distribution Vdss
quantityName: log10 of Vd (log10 of the value in L/kg)

molecule | log10 of Vd
Cc1n[nH]c2ccc(-c3cccc(C(=O)NC(CN)c4cccc(F)c4F)c3)cc12 (stereo not shown) [Compound 61] | 0.67
COc1cccc(C(CNS(C)(=O)=O)NC(=O)c2cccc(-c3ccc4[nH]nc(C)c4c3)c2)c1 (stereo not shown) [Compound 72] | 0.25
COc1cccc(C(CN)NC(=O)c2cc(-c3ccc4[nH]nc(C)c4c3)ccc2OC(F)(F)F)c1 (stereo not shown) [Compound 49] | 0.92
CNCC(NC(=O)c1cc(-c2ccc3[nH]nc(C)c3c2)ccn1)c1cccc(OC)c1 (stereo not shown) [Compound 66] | 1.02
Cc1cccc(C(CN)NC(=O)c2cccc(-c3ccc4[nH]nc(C)c4c3)c2)c1 (stereo not shown) [Compound 35] | 0.83
COc1cccc(C(NC(=O)c2cccc(-c3ccc4[nH]nc(C)c4c3)c2)C(C)(C)N)c1 (stereo not shown) [Compound 64] | 1.21
COc1cccc(C(CO)NC(=O)c2cccc(-c3ccc4[nH]nc(F)c4c3)c2)c1 (stereo not shown) [Compound 26] | 0.24
COc1cccc(C(CO)NC(=O)c2cccc(-c3ccc4[nH]nc(C)c4c3)c2)c1 (stereo not shown) [Compound 25] | 0.06
COc1cccc(C(CN(C)C)NC(=O)c2cccc(-c3ccc4[nH]nc(C)c4c3)c2)c1 (stereo not shown) [Compound 36] | 0.70
COc1cccc(C(CN)NC(=O)c2cc(-c3ccc4[nH]nc(C)c4c3)ccn2)c1 (stereo not shown) [Compound 40] | 0.78

====

testedOn: ROCK1 (Homo sapiens (Human))
Sequence (Q13464 whole entry): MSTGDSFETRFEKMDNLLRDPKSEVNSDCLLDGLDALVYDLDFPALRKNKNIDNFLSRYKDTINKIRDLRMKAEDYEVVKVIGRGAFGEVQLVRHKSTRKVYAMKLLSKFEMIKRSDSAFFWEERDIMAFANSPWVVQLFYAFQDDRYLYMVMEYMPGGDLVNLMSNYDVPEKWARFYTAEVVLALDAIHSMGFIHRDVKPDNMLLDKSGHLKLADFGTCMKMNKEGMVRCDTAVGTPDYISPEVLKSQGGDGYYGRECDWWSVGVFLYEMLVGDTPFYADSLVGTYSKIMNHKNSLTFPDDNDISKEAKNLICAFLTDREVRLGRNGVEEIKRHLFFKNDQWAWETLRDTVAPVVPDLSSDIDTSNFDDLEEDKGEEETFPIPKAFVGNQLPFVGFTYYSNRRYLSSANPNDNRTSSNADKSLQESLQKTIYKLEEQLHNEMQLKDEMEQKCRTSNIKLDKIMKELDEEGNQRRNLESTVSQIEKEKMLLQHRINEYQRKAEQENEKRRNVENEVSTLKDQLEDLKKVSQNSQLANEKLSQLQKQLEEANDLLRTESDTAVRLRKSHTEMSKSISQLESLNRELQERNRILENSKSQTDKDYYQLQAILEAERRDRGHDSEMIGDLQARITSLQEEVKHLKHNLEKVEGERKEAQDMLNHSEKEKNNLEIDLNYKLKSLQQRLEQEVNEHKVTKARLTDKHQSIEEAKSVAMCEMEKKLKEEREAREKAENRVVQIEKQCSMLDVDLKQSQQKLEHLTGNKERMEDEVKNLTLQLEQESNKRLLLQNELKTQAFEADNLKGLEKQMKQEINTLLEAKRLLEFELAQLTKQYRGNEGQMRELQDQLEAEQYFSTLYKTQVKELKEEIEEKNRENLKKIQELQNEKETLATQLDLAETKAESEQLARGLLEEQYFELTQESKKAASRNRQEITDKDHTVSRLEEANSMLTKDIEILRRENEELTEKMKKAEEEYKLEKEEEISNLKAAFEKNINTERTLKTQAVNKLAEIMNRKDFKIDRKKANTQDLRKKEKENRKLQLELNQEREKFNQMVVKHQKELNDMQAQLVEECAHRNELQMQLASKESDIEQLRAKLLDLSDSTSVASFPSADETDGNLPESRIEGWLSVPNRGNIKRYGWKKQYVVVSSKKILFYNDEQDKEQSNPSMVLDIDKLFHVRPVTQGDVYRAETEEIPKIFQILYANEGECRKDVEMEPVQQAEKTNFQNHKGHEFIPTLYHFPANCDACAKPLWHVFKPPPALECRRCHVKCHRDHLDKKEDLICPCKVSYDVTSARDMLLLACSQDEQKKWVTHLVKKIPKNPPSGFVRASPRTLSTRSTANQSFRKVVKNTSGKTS
pIC50: −log10 of the molar value.
Ranges used to classify pIC50: bottom: < 6; middle: ≥ 6 and < 7; top: ≥ 7

compound | labelClass
Cc1cccc(C(CN)NC(=O)c2cccc(-c3ccc4[nH]nc(C)c4c3)c2)c1 (stereo not shown) | middle
Cc1n[nH]c2ccc(-c3cccc(C(=O)NC(CN)c4cccc(F)c4F)c3)cc12 (stereo not shown) | middle
COc1cccc(C(CN)NC(=O)c2cc(CN3CCCC3)cc(-c3ccc4[nH]nc(C)c4c3)c2)c1 (stereo not shown) | middle
COc1cccc(C(CN)NC(=O)c2cccc(-c3ccc4[nH]nc(C)c4c3)c2)c1 (stereo not shown) | top
COCCC(NC(=O)c1cccc(-c2ccc3[nH]ncc3c2)c1)c1cccc(OC)c1 (stereo not shown) | middle
Cc1cccc(C(CN)NC(=O)c2cc(-c3ccc4[nH]nc(C)c4c3)ccn2)c1 (stereo not shown) | middle
COc1cccc(C(CO)NC(=O)c2cc(F)cc(-c3ccc4[nH]ncc4c3)c2)c1 (stereo not shown) | middle
NCC(NC(=O)c1cccc(-c2ccc3[nH]ncc3c2)c1)c1cccc(F)c1 (stereo not shown) | top
COc1cccc(C(CN2CCNCC2)NC(=O)c2cccc(-c3ccc4[nH]nc(F)c4c3)c2)c1 (stereo not shown) | bottom
COc1cccc(C(CCO)NC(=O)c2ccnc(-c3ccc4[nH]ncc4c3)c2)c1 (stereo not shown) | bottom
NCC(NC(=O)c1cccc(-c2ccc3[nH]nc(F)c3c2)c1)c1cccc(F)c1F (stereo not shown) | middle
COc1cccc(C(CN)NC(=O)c2cccc(-c3ccc4[nH]nc(F)c4c3)c2)c1 (stereo not shown) | top

====

Entries with their measured IC50, system ROCK2 (Homo sapiens (Human)):

molecule | IC50 / nM
Cc1cccc(C(CN)NC(=O)c2cccc(-c3ccc4[nH]nc(C)c4c3)c2)c1 (stereo not shown) [Compound 35] | 13
COc1cccc(C(CCN)NC(=O)c2cccc(-c3ccc4[nH]ncc4c3)c2)c1 (stereo not shown) [Compound 7] | 4
Cc1n[nH]c2ccc(-c3cccc(C(=O)NC(CN)c4cccc(Cl)c4)c3)cc12 (stereo not shown) [Compound 43] | 6
COc1cccc(C(CN2CCCC2)NC(=O)c2cccc(-c3ccc4[nH]nc(C)c4c3)c2)c1 (stereo not shown) [Compound 37] | 7

====

testDetails: Pharmacokinetics in SD rats (intravenous injection and oral administration)
Format: in vivo
conditionSummary: rat, plasma; male SD rats, intravenous 1 mg/kg; read-out: Clearance rate CL
Could you please mark Y for values of clearance below 20 mL/min/kg and N for values at or above it?

molecule | labelClass
Cc1cccc(C(CN)NC(=O)c2cccc(-c3ccc4[nH]nc(C)c4c3)c2)c1 (stereo not shown) [Compound 35] | N
COc1cccc(C(CO)NC(=O)c2cccc(-c3ccc4[nH]nc(C)c4c3)c2)c1 (stereo not shown) [Compound 25] | Y
COc1cccc(C(CN)NC(=O)c2cc(-c3ccc4[nH]nc(C)c4c3)ccn2)c1 (stereo not shown) [Compound 40] | N
COc1cccc(C(CN)NC(=O)c2cc(-c3ccc4[nH]nc(C)c4c3)ccc2OC(F)(F)F)c1 (stereo not shown) [Compound 49] | N
Cc1n[nH]c2ccc(-c3cccc(C(=O)NC(CN)c4cccc(F)c4F)c3)cc12 (stereo not shown) [Compound 61] | N
COc1cccc(C(CNS(C)(=O)=O)NC(=O)c2cccc(-c3ccc4[nH]nc(C)c4c3)c2)c1 (stereo not shown) [Compound 72] | N
CNCC(NC(=O)c1cc(-c2ccc3[nH]nc(C)c3c2)ccn1)c1cccc(OC)c1 (stereo not shown) [Compound 66] | N
COc1cccc(C(CN(C)C)NC(=O)c2cccc(-c3ccc4[nH]nc(C)c4c3)c2)c1 (stereo not shown) [Compound 36] | N
COc1cccc(C(NC(=O)c2cccc(-c3ccc4[nH]nc(C)c4c3)c2)C(C)(C)N)c1 (stereo not shown) [Compound 64] | N
COc1cccc(C(CO)NC(=O)c2cccc(-c3ccc4[nH]nc(F)c4c3)c2)c1 (stereo not shown) [Compound 26] | Y

====

Measured AUC(0-t), listed per entry.
testDetails: Pharmacokinetics in SD rats (intravenous injection and oral administration)
Type: in vivo
conditionSummary: rat, plasma; male SD rats, oral 2 mg/kg; read-out: Area under the drug-time curve AUC0-last PO
quantityName: AUC(0-t) (µM·h)

compound | readoutUnit | measuredValue
CNCC(NC(=O)c1cc(-c2ccc3[nH]nc(C)c3c2)ccn1)c1cccc(OC)c1 (stereo not shown) | µM·h | 0.306
Cc1cccc(C(CN)NC(=O)c2cccc(-c3ccc4[nH]nc(C)c4c3)c2)c1 (stereo not shown) | µM·h | 0.734
COc1cccc(C(NC(=O)c2cccc(-c3ccc4[nH]nc(C)c4c3)c2)C(C)(C)N)c1 (stereo not shown) | µM·h | 0.1
COc1cccc(C(CO)NC(=O)c2cccc(-c3ccc4[nH]nc(C)c4c3)c2)c1 (stereo not shown) | µM·h | 6.3
Cc1n[nH]c2ccc(-c3cccc(C(=O)NC(CN)c4cccc(F)c4F)c3)cc12 (stereo not shown) | µM·h | 0.266
COc1cccc(C(CN)NC(=O)c2cc(-c3ccc4[nH]nc(C)c4c3)ccn2)c1 (stereo not shown) | µM·h | 0.758
COc1cccc(C(CN(C)C)NC(=O)c2cccc(-c3ccc4[nH]nc(C)c4c3)c2)c1 (stereo not shown) | µM·h | 0.156
COc1cccc(C(CO)NC(=O)c2cccc(-c3ccc4[nH]nc(F)c4c3)c2)c1 (stereo not shown) | µM·h | 3.04
COc1cccc(C(CNS(C)(=O)=O)NC(=O)c2cccc(-c3ccc4[nH]nc(C)c4c3)c2)c1 (stereo not shown) | µM·h | 0.148
COc1cccc(C(CN)NC(=O)c2cc(-c3ccc4[nH]nc(C)c4c3)ccc2OC(F)(F)F)c1 (stereo not shown) | µM·h | 1.33

====

Entries with their measured IC50, system ROCK2 (Homo sapiens (Human)):

compound | testedOn | IC50 (nM)
O=C(NC(CCO)c1cccc(F)c1)c1cccc(-c2ccc3[nH]ncc3c2)c1 (centres unmarked) | ROCK2 (Homo sapiens (Human)) | 7
Cc1cccc(C(CN)NC(=O)c2cc(-c3ccc4[nH]nc(C)c4c3)ccn2)c1 (centres unmarked) | ROCK2 (Homo sapiens (Human)) | 22
COc1cccc(C2(NC(=O)c3cccc(-c4ccc5[nH]nc(F)c5c4)c3)CCNC2)c1 (centres unmarked) | ROCK2 (Homo sapiens (Human)) | 19
COc1cccc(C(CN(C)C)NC(=O)c2cccc(-c3ccc4[nH]nc(C)c4c3)c2)c1 (centres unmarked) | ROCK2 (Homo sapiens (Human)) | 10
O=C(NC(CO)c1cccc(F)c1F)c1cccc(-c2ccc3[nH]ncc3c2)c1 (centres unmarked) | ROCK2 (Homo sapiens (Human)) | 35

====

testDetails: Pharmacokinetics in SD rats (intravenous injection and oral administration)
Assay type: in vivo
conditionSummary: rat, plasma; male SD rats, oral 2 mg/kg; read-out: Peak concentration Cmax
Measured Cmax, listed per entry.

compound | Cmax, nM
COc1cccc(C(CO)NC(=O)c2cccc(-c3ccc4[nH]nc(F)c4c3)c2)c1 (stereo not shown) | 752
COc1cccc(C(CO)NC(=O)c2cccc(-c3ccc4[nH]nc(C)c4c3)c2)c1 (stereo not shown) | 1180
COc1cccc(C(CNS(C)(=O)=O)NC(=O)c2cccc(-c3ccc4[nH]nc(C)c4c3)c2)c1 (stereo not shown) | 99.4
COc1cccc(C(CN(C)C)NC(=O)c2cccc(-c3ccc4[nH]nc(C)c4c3)c2)c1 (stereo not shown) | 36.4
COc1cccc(C(NC(=O)c2cccc(-c3ccc4[nH]nc(C)c4c3)c2)C(C)(C)N)c1 (stereo not shown) | 17
Cc1cccc(C(CN)NC(=O)c2cccc(-c3ccc4[nH]nc(C)c4c3)c2)c1 (stereo not shown) | 117
CNCC(NC(=O)c1cc(-c2ccc3[nH]nc(C)c3c2)ccn1)c1cccc(OC)c1 (stereo not shown) | 50.7
COc1cccc(C(CN)NC(=O)c2cc(-c3ccc4[nH]nc(C)c4c3)ccc2OC(F)(F)F)c1 (stereo not shown) | 157
COc1cccc(C(CN)NC(=O)c2cc(-c3ccc4[nH]nc(C)c4c3)ccn2)c1 (stereo not shown) | 117
Cc1n[nH]c2ccc(-c3cccc(C(=O)NC(CN)c4cccc(F)c4F)c3)cc12 (stereo not shown) | 55.6
